Tested target: 11β-HSD 1 (Homo sapiens)
Construct: detecting cortisol generated from cortisterone by human liver microsomes; from tissue; host or cells: human liver microsomes
Assay name: In vitro inhibition of 11β-HSD 1, HTRF detection of cortisol generated by human liver microsomes
Format: biochemical
Assay context: 1 μM test compound, 100% indicates no inhibition, zero or below zero indicates complete inhibition (relative to carbenoxolone)
Metric: Inhibitory activity on 11β-HSD 1, % CTL (% CTL)

{"Molecule": "O=C(c1ccc2c(c1)OCCO2)N1C2CCC1CC(c1ccc(Cl)cc1F)C2 (stereo not shown)", "Val": "−59"}
{"Molecule": "O=C(c1ccc2c(c1)OCCO2)N1[C@@H]2CC[C@H]1C[C@@H](c1ccc(F)cc1F)C2", "Val": "−26"}
{"Molecule": "Cc1ccc(C(=O)N2[C@@H]3CC[C@H]2C[C@@H](c2ccc(F)cc2)C3)cc1O", "Val": 31}
{"Molecule": "COc1ccccc1[C@H]1C[C@H]2CC[C@@H](C1)N2C(=O)c1ccc2c(c1)OCCO2", "Val": "−13"}

====

Tested target: 11β-HSD 1 (Homo sapiens, UniProt P28845)
Construct: detecting cortisol generated from cortisterone by human liver microsomes; from tissue; host or cells: human liver microsomes
Sequence (P28845 whole entry): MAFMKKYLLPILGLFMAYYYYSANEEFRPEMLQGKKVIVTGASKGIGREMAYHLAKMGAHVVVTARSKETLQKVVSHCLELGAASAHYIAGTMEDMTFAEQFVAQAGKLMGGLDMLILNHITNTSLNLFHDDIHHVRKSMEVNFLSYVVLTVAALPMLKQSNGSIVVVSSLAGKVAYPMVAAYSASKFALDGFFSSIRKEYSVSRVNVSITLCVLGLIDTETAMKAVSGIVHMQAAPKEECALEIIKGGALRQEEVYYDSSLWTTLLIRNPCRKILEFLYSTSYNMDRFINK
Assay name: In vitro inhibition of 11β-HSD 1, HTRF detection of cortisol generated by human liver microsomes
Format: biochemical
Assay context: 1 μM test compound, 100% indicates no inhibition, zero or below zero indicates complete inhibition (relative to carbenoxolone)
# Lookup of reported Inhibitory activity on 11β-HSD 1, % CTL keyed by entry
Metric: Inhibitory activity on 11β-HSD 1, % CTL (% CTL)

{"Compound": "Cn1nnc2cc(C(=O)N3[C@@H]4CC[C@H]3C[C@@H](c3ccc(F)cc3)C4)ccc21 [Example 68]", "Val": 66}
{"Compound": "Cc1[nH]c2cc(C(=O)N3[C@@H]4CC[C@H]3C[C@@H](c3ccc(F)cc3)C4)ccc2c1C [Example 52]", "Val": 82}
{"Compound": "O=C(c1ccc2[nH]cnc2c1)N1[C@@H]2CC[C@H]1C[C@@H](c1ccc(F)cc1)C2 [Example 1]", "Val": "−18"}
{"Compound": "NCc1ccc(C2CC3CCC(C2)N3C(=O)c2ccc3c(c2)OCCO3)cc1 (stereo not shown) [Example 146]", "Val": 96}
{"Compound": "O=C(c1cccc(Cl)c1)N1[C@@H]2CC[C@H]1C[C@@H](c1ccc(F)cc1)C2 [Example 125]", "Val": 7}
{"Compound": "O=C(c1cccc(O)c1)N1[C@@H]2CC[C@H]1C[C@@H](c1ccc(F)cc1)C2 [Example 129]", "Val": "−1"}
{"Compound": "O=C(c1ccc(OC2CSC2)cc1)N1[C@@H]2CC[C@H]1C[C@@H](c1ccc(F)cc1)C2 [Example 31]", "Val": 86}
{"Compound": "O=C(c1cccs1)N1[C@@H]2CC[C@H]1C[C@@H](c1ccc(F)cc1)C2 [Example 7]", "Val": 68}
{"Compound": "O=C(c1ccc(O)c(C(F)(F)F)c1)N1[C@@H]2CC[C@H]1C[C@@H](c1ccc(F)cc1)C2 [Example 174]", "Val": "−40"}
{"Compound": "Nc1nc2cc(C(=O)N3[C@@H]4CC[C@H]3C[C@@H](c3ccc(F)cc3)C4)ccc2[nH]1 [Example 48]", "Val": 1}
{"Compound": "O=C(O)c1ccc([C@H]2C[C@H]3CC[C@@H](C2)N3C(=O)c2ccc3c(c2)OCCO3)cc1 [Example 158]", "Val": 86}
{"Compound": "Cc1cc2cc(C(=O)N3[C@@H]4CC[C@H]3C[C@@H](c3ccc(F)cc3)C4)ccc2[nH]1 [Example 50]", "Val": 6}
{"Compound": "CC(=O)Nc1ccc(C(=O)N2[C@@H]3CC[C@H]2C[C@@H](c2ccc(F)cc2)C3)cc1 [Example 115]", "Val": 33}
{"Compound": "O=C(c1ccccc1F)N1[C@@H]2CC[C@H]1C[C@@H](c1ccc(F)cc1)C2 [Example 57]", "Val": 63}
{"Compound": "O=C(c1ccc(O)c(Cl)c1)N1[C@@H]2CC[C@H]1C[C@@H](c1ccc(F)cc1)C2 [Example 167]", "Val": "−22"}
{"Compound": "O=C(c1cc(F)c(O)c(Cl)c1)N1[C@@H]2CC[C@H]1C[C@@H](c1ccc(F)cc1)C2 [Example 179]", "Val": "−11"}

====

Tested target: 11β-HSD 1 (Homo sapiens)
Construct: detecting cortisol generated from cortisterone by human liver microsomes; from tissue; host or cells: human liver microsomes
Assay name: In vitro inhibition of 11β-HSD 1, HTRF detection of cortisol generated by human liver microsomes
Type: biochemical
Assay context: 1 μM test compound, 100% indicates no inhibition, zero or below zero indicates complete inhibition (relative to carbenoxolone)

{"Compound": "COc1cc(C(=O)N2[C@@H]3CC[C@H]2C[C@@H](c2ccc(F)cc2)C3)ccc1O [Example 171]", "Inhibitory activity on 11β-HSD 1, % CTL / % CTL": "−26"}
{"Compound": "N#Cc1ccc(C(=O)N2[C@@H]3CC[C@H]2C[C@@H](c2ccc(F)cc2)C3)cc1 [Example 105]", "Inhibitory activity on 11β-HSD 1, % CTL / % CTL": 58}
{"Compound": "O=C(c1ccccc1Cl)N1[C@@H]2CC[C@H]1C[C@@H](c1ccc(F)cc1)C2 [Example 111]", "Inhibitory activity on 11β-HSD 1, % CTL / % CTL": 61}
{"Compound": "O=C1CCCN1c1ccc(C(=O)N2[C@@H]3CC[C@H]2C[C@@H](c2ccc(F)cc2)C3)cc1 [Example 65]", "Inhibitory activity on 11β-HSD 1, % CTL / % CTL": 33}
{"Compound": "CC(=O)Nc1cccc(C(=O)N2[C@@H]3CC[C@H]2C[C@@H](c2ccc(F)cc2)C3)c1 [Example 64]", "Inhibitory activity on 11β-HSD 1, % CTL / % CTL": 99}
{"Compound": "O=C(c1ccc2[nH]ccc2c1)N1[C@@H]2CC[C@H]1C[C@@H](c1ccc(F)cc1)C2 [Example 113]", "Inhibitory activity on 11β-HSD 1, % CTL / % CTL": "−23"}
{"Compound": "O=C(c1cc(Cl)c(O)c(Cl)c1)N1[C@@H]2CC[C@H]1C[C@@H](c1ccc(F)cc1)C2 [Example 163]", "Inhibitory activity on 11β-HSD 1, % CTL / % CTL": "−7"}
{"Compound": "COc1cccc(C(=O)N2[C@@H]3CC[C@H]2C[C@@H](c2ccc(F)cc2)C3)c1OC [Example 127]", "Inhibitory activity on 11β-HSD 1, % CTL / % CTL": 85}
{"Compound": "CNc1cccc(C(=O)N2[C@@H]3CC[C@H]2C[C@@H](c2ccc(F)cc2)C3)c1 [Example 83]", "Inhibitory activity on 11β-HSD 1, % CTL / % CTL": "−30"}
{"Compound": "COc1cc(C(=O)N2[C@@H]3CC[C@H]2C[C@@H](c2ccc(F)cc2)C3)cc(Cl)c1O [Example 175]", "Inhibitory activity on 11β-HSD 1, % CTL / % CTL": "−37"}
{"Compound": "Cn1c(=O)n(C)c2cc(C(=O)N3[C@@H]4CC[C@H]3C[C@@H](c3ccc(F)cc3)C4)ccc21 [Example 39]", "Inhibitory activity on 11β-HSD 1, % CTL / % CTL": 43}
{"Compound": "O=C(c1ccc(O)nc1)N1[C@@H]2CC[C@H]1C[C@@H](c1ccc(F)cc1)C2 [Example 102]", "Inhibitory activity on 11β-HSD 1, % CTL / % CTL": 47}
{"Compound": "COc1ccccc1C(=O)N1[C@@H]2CC[C@H]1C[C@@H](c1ccc(F)cc1)C2 [Example 110]", "Inhibitory activity on 11β-HSD 1, % CTL / % CTL": 87}
